The origin of these recorded values is the supplement of paper PMC11246515.

assay: total protein half-life in vivo (active degradation + dilution); higher = more stable protein; conditions: wild type E. coli NCM3722; growth: N-lim chemostat; doubling time 6 h
Binary call on total protein half-life in vivo: 1 from 4 h upward, -1 beneath that.

Exercise: # check: total protein half-life in vivo of `MTKPYVRLDKNDAAVLLVDHQAGLLSLVRDIEPDKFKNNVLALGDLAKYFNLPTILTTSFETGPNGPLVPELKAQFPDTPYIARPGNINAWDNEDFVKAVKATGKKQLIIAGVVTEVCVAFPALSAIEEGFDVFVVTDASGTFNEITRHSAWDRLSQAGAQLMTWFGVACELHRDWRNDIEGLATLFSNHIPDYRNLMTSYDTLTKQK` is greater than or equal to 4 h
Key: 1

Exercise: Would you say `MIQPISGPPPGQPPGQGDNLPSGTGNQPLSSQQRTSLESLMTKVTSLTQQQRAELWAGIRHDIGLSGDSPLLSRHFPAAEHNLAQRLLAAQKSHSARQLLAQLGEYLRLGNNRQAVTDYIRHNFGQTPLNQLSPEQLKTILTLLQEGKMVIPQPQQREATDRPLLPAEHNALKQLVTKLAAATGEPSKQIWQSMLELSGVKDGELIPAKLFNHLVTWLQARQTLSQQNTPTLESLQMTLKQPLDASELAALSAYIQQKYGLSAQSSLSSAQAEDILNQLYQRRVKGIDPRVMQPLLNPFPPMMDTLQNMATRPALWILLVAIILMLVWLVR` shows total protein half-life in vivo at minimum 4 h?
Key: -1

Exercise: Confirm if total protein half-life in vivo reported for the sequence `MRTISYSEARQNLSATMMKAVEDHAPILITRQNGEACVLMSLEEYNSLEETAYLLRSPANARRLMDSIDSLKSGKGTEKDIIE` is 4 h or above.
Key: -1

Exercise: Is it the case that MKKKILAFGLISALFCSTPAMADMNRTTKGALLGAGVGLLTGNGVNGVLKGAAVGAGVGAVTEKGRDGKNARKGAKVGAAVGAVTGVLTGNGLEGAIKGAVIGGTGGAILGKMK [Q7DFV3] has total protein half-life in vivo reaching or exceeding 4 h?
Key: -1

Exercise: Identify whether the reported total protein half-life in vivo of the following sequence is 4 h or greater: `MKIAFIGEAVSGFGGMETVIRDVITTFRQQHIQSEMFFFCRNDKMDKGWLEGIKYSCSFSNIRLGFLRRAKHIHALSKWLQEYQPDIVICIDVISCLFAAKARKKSGIDMPVFSWPHFSLDHKKHAEYITCADYHLAISSGIKQQMINRGVAESTINVIFNPVETKDSVIPAPEEGETATFIYVGRMKFEGQKRVKDLLDGLSQAKGNWKLHVLGDGSDFEKCQAYGRELNIDDRIVWYGWQQYPWELVQQDIEKVSALLLTSSFEGFPMTLLEALSWGIPCISADCVSGPADIIQPDVNGHLYQPGDIAGFVTLLNKYIAGEIHIEHEKIPASIDEFYQSKYYDRLHKVIISAISRRK`
Key: 1

Exercise: Does the sequence `MWLLDQWAERHIAEAQAKGEFDNLAGSGEPLILDDDSHVPPELRAGYRLLKNAGCLPPELEQRREAIQLLDILKGIRHDDPQYQEVSRRLSLLELKLRQAGLSTDFLRGDYADKLLDKINDN` have recorded total protein half-life in vivo that is 4 h or more?
Key: 1
